assay_protocol: MTT cytotoxicity assay, GES-1 normal cells
Assay type: cell-based, human
assay_context: human, GES-1 gastric epithelial cells (normal cell line); GES-1 normal cells, MTT, 48 h; read-out: IC50
Procedure: In the study, five cancer cell lines (human colon cancer cells (HT-29), gastric cancer cells (BGC-823), cervical cancer cells (Hela), human breast cancer cells (MCF-7), and human lung cancer cells A549)), and two normal cell lines (human gastric epithelial cells (GES-1) and human ovarian epithelial cells (IOSE144)) were used for the evaluation of biological activity. […] Cell viability was measured using the MTT assay. […]
For each of the compounds below, state its IC50 at 48 h.

compound: CC1(C)CCC[C@](C)([C@H]2CC[C@]3(C)[C@@H]2[C@H](O)C[C@@H]2[C@@]4(C)CC[C@H](O)C(C)(C)[C@@H]4CC[C@]23C)O1 [PD, panaxadiol, reference compound]
IC50 at 48 h: > 100 µM
--
compound: COC(C)(C)CCC[C@@](C)(O)C1CC[C@]2(C)C1[C@H](O)CC1[C@@]3(C)CC[C@H](O)C(C)(C)C3CC[C@]12C (some centres unmarked) [AD-1, 25-methoxyprotopanaxadiol, reference compound]
IC50 at 48 h: > 100 µM
--
compound: CC(=O)Oc1ccccc1C(=O)O [Acetyl-salicylic acid, reference compound]
IC50 at 48 h: > 100 µM
--
compound: CC(C)(O)CCC[C@@](C)(O)C1CC[C@]2(C)C1[C@H](O)CC1[C@@]3(C)CC[C@H](O)C(C)(C)C3CC[C@]12C (some centres unmarked) [AD-2, 25-hydroxyprotopanaxadiol, reference compound]
IC50 at 48 h: > 100 µM

Now let's try a different one.
Memo: O=C(O)c1ccccc1O [Salicylic acid, reference compound] , reported IC50 at 48 h: > 100 µM

* * *

For each of the compounds below, state its pIC50.
System: human breast cancer cells (MCF-7)
assay_protocol: MTT cytotoxicity assay, MCF-7
Format: cell-based
assay_context: Homo sapiens, MCF7; MCF-7, MTT, 48 h
One number for each entry, as −log10 of the molar value.

Here are 4 compounds together with their reported answers.
compound: CC(=O)Oc1ccccc1C(=O)OC1CCC2(C)C(CCC3(C)C2CC(OC(=O)c2ccccc2O)C2C(C4(C)CCCC(C)(C)O4)CCC23C)C1(C)C (stereo not drawn)
attribute_measured: pIC50
readout_value: 5.12
--
compound: COC(C)(C)CCCC(C)(O)C1CCC2(C)C1C(OC(=O)c1ccccc1O)CC1C3(C)CCC(O)C(C)(C)C3CCC12C (stereo not drawn)
attribute_measured: pIC50
readout_value: 5.27
--
compound: CC(=O)Oc1ccccc1C(=O)OC1CCC2(C)C(CCC3(C)C2CC(O)C2C(C(C)(O)CCCC(C)(C)O)CCC23C)C1(C)C (stereo not drawn)
attribute_measured: pIC50
readout_value: 4.83
--
compound: CC1(C)CCC[C@](C)(C2CC[C@]3(C)C2[C@H](O)CC2[C@@]4(C)CC[C@H](OC(=O)c5ccccc5O)C(C)(C)C4CC[C@]23C)O1 (stereo partly drawn) [Compound 11a]
attribute_measured: pIC50
readout_value: 4.94

Now let's try a different one.
Memo: CC1(C)CCC[C@](C)([C@H]2CC[C@]3(C)[C@@H]2[C@H](O)C[C@@H]2[C@@]4(C)CC[C@H](O)C(C)(C)[C@@H]4CC[C@]23C)O1 [PD, panaxadiol, reference compound] , reported pIC50: 4.21

* * *

Tested on: human breast cancer cells (MCF-7)
assay_protocol: MTT cytotoxicity assay, MCF-7
Type: cell-based
assay_context: Homo sapiens, MCF7; MCF-7, MTT, 48 h
attribute_measured: IC50 (µM)
One number for each entry, in µM.

compound: COC(C)(C)CCCC(C)(O)C1CCC2(C)C1C(OC(=O)c1ccccc1O)CC1C3(C)CCC(OC(=O)c4ccccc4O)C(C)(C)C3CCC12C (stereo not drawn)
IC50, µM: 25.7
--
compound: CC(C)(CCCC(C)(O)C1CCC2(C)C1C(OC(=O)c1ccccc1O)CC1C3(C)CCC(OC(=O)c4ccccc4O)C(C)(C)C3CCC12C)OC(=O)c1ccccc1O (stereo not drawn)
IC50, µM: 20.3

Now let's try a different one.
Memo: CC(C)(CCCC(C)(O)C1CCC2(C)C1C(O)CC1C3(C)CCC(O)C(C)(C)C3CCC12C)OC(=O)c1ccccc1O (stereo not drawn) , reported IC50: 50.7

* * *

System: human gastric epithelial cells (GES-1)
assay_protocol: MTT cytotoxicity assay, GES-1 normal cells
Type: cell-based
assay_context: GES-1 normal cells, MTT, 48 h
attribute_measured: IC50

Memo: CC(C)=CCC[C@](C)(O)[C@H]1CC[C@]2(C)[C@@H]1[C@H](O)C[C@@H]1[C@@]3(C)CC[C@H](O[C@@H]4O[C@H](CO)[C@@H](O)[C@H](O)[C@H]4O[C@@H]4O[C@H](CO)[C@@H](O)[C@H](O)[C@H]4O)C(C)(C)[C@@H]3CC[C@]12C [Rg3, Ginsenoside-Rg3, reference compound] , reported IC50: > 100 µM

* * *

attribute_measured: melting point

molecule: CC(=O)Oc1ccccc1C(=O)OC1CC2C3(C)CCC(O)C(C)(C)C3CCC2(C)C2(C)CCC(C3(C)CCCC(C)(C)O3)C12 (stereo not drawn)
melting point: 226 to 228 °C
//
molecule: COC(C)(C)CCCC(C)(O)C1CCC2(C)C1C(OC(=O)c1ccccc1O)CC1C3(C)CCC(O)C(C)(C)C3CCC12C (stereo not drawn)
melting point: 235 to 237 °C

Now let's try a different one.
Memo: CC(=O)Oc1ccccc1C(=O)OC1CCC2(C)C(CCC3(C)C2CC(O)C2C(C(C)(O)CCCC(C)(C)O)CCC23C)C1(C)C (stereo not drawn) , reported melting point: 254 to 256 °C

* * *

For each of the molecules below, state its melting point.

Here are 6 molecules together with their reported answers.
molecule: CC1(C)CCC[C@](C)(C2CC[C@]3(C)C2[C@H](OC(=O)c2ccccc2O)CC2[C@@]4(C)CC[C@H](OC(=O)c5ccccc5O)C(C)(C)C4CC[C@]23C)O1 (some centres unmarked) [Compound 10a]
readout_value: 232 to 234 °C
//
molecule: CC1(C)CCC[C@](C)(C2CC[C@]3(C)C2[C@H](O)CC2[C@@]4(C)CC[C@H](OC(=O)c5ccccc5O)C(C)(C)C4CC[C@]23C)O1 (some centres unmarked) [Compound 11a]
readout_value: 222 to 224 °C
//
molecule: CC(C)(O)CCCC(C)(O)C1CCC2(C)C1C(O)CC1C3(C)CCC(OC(=O)c4ccccc4O)C(C)(C)C3CCC12C (centres unmarked)
readout_value: 295 to 297 °C
//
molecule: CC(=O)Oc1ccccc1C(=O)OC1CCC2(C)C(CCC3(C)C2CC(O)C2C(C4(C)CCCC(C)(C)O4)CCC23C)C1(C)C (centres unmarked)
readout_value: 243 to 245 °C
//
molecule: CC(C)(CCCC(C)(O)C1CCC2(C)C1C(O)CC1C3(C)CCC(O)C(C)(C)C3CCC12C)OC(=O)c1ccccc1O (centres unmarked)
readout_value: 223 to 225 °C
//
molecule: CC(=O)Oc1ccccc1C(=O)OC1CCC2(C)C(CCC3(C)C2CC(OC(C)=O)C2C(C(C)(O)CCCC(C)(C)O)CCC23C)C1(C)C (centres unmarked)
readout_value: 268 to 270 °C

Report melting point for every entry below.
1. CC(=O)OC1CC2C3(C)CCC(OC(=O)c4ccccc4O)C(C)(C)C3CCC2(C)C2(C)CCC(C(C)(O)CCCC(C)(C)O)C12 (centres unmarked)
2. CC(C)(CCCC(C)(O)C1CCC2(C)C1C(O)CC1C3(C)CCC(OC(=O)c4ccccc4O)C(C)(C)C3CCC12C)OC(=O)c1ccccc1O (centres unmarked)
3. CC(=O)OC1CCC2(C)C(CCC3(C)C2CC(OC(=O)c2ccccc2O)C2C(C4(C)CCCC(C)(C)O4)CCC23C)C1(C)C (centres unmarked)
4. COC(C)(C)CCCC(C)(O)C1CCC2(C)C1C(OC(=O)c1ccccc1O)CC1C3(C)CCC(OC(=O)c4ccccc4O)C(C)(C)C3CCC12C (centres unmarked)
5. COC(C)(C)CCCC(C)(O)C1CCC2(C)C1C(O)CC1C3(C)CCC(OC(=O)c4ccccc4O)C(C)(C)C3CCC12C (centres unmarked)

Response line:
278 to 280 °C
219 to 221 °C
238 to 240 °C
200 to 202 °C
246 to 248 °C

* * *

attribute_measured: melting point

compound: CC(C)(O)CCCC(C)(O)C1CCC2(C)C1C(OC(=O)c1ccccc1O)CC1C3(C)CCC(OC(=O)c4ccccc4O)C(C)(C)C3CCC12C (stereo not drawn) [Compound 7a]
melting point: 197 to 199 °C

Report melting point for every entry below.
1. CC(C)(CCCC(C)(O)C1CCC2(C)C1C(OC(=O)c1ccccc1O)CC1C3(C)CCC(OC(=O)c4ccccc4O)C(C)(C)C3CCC12C)OC(=O)c1ccccc1O (stereo not drawn) [Compound 1a]
2. CC(=O)Oc1ccccc1C(=O)OC1CC2C3(C)CCC(OC(=O)c4ccccc4OC(C)=O)C(C)(C)C3CCC2(C)C2(C)CCC(C3(C)CCCC(C)(C)O3)C12 (stereo not drawn) [Compound 2b]
3. CC(C)(O)CCCC(C)(O)C1CCC2(C)C1C(OC(=O)c1ccccc1O)CC1C3(C)CCC(O)C(C)(C)C3CCC12C (stereo not drawn) [Compound 5a]
4. CC1(C)CCC[C@](C)(C2CC[C@]3(C)C2[C@H](OC(=O)c2ccccc2O)CC2[C@@]4(C)CC[C@H](O)C(C)(C)C4CC[C@]23C)O1 (stereo partly drawn) [Compound 12a]
5. CC(=O)Oc1ccccc1C(=O)OC1CCC2(C)C(CCC3(C)C2CC(OC(=O)c2ccccc2O)C2C(C4(C)CCCC(C)(C)O4)CCC23C)C1(C)C (stereo not drawn) [Compound 1b]

Response line:
1. 192 to 194 °C
2. 238 to 240 °C
3. 258 to 260 °C
4. 248 to 250 °C
5. 198 to 200 °C

These measurements were taken from paper PMC6278399.
